Reference for the values: ChEMBL document CHEMBL1961873

Exercise: state measured inhibition for each of the compounds provided.
# system tested: Ephrin type-A receptor 2 (Homo sapiens);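 note: reported values are mean percent inhibition of EPHA2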
# assay conditions: at 0.1 µM
Answers are plain numbers, in %.

Guide cases for inhibition, answers given:
COc1cc2ncn(-c3cc(OCc4ccccc4C(F)(F)F)c(C(N)=O)s3)c2cc1OC : -0.41
COc1cc2ncn(-c3cc(O[C@@H](C)c4ccccc4Cl)c(C(N)=O)s3)c2cc1OC : 1.55
CCn1c(-c2nonc2N)nc2cncc(C(=O)N3CC[C@H](N)C3)c21 : -0.29
CCN1CCC(CC(=O)Nc2n[nH]c3nc(-c4cccs4)c(Br)cc23)CC1 : -3.7
O=C1NC(=O)C(c2cccc(Cl)c2)=C1Nc1ccc(O)c(Cl)c1 : 0.74

Batch lookup, inhibition per entry.
1. CS(=O)(=O)CCN(CC#N)Cc1ccc(-c2ccc3ncnc(Nc4ccc(OCc5cccc(F)c5)c(Cl)c4)c3c2)o1
2. CCn1c(-c2nonc2N)nc2c(C#CC(C)(C)O)nc(CN3CCCC3)cc21

-5.85
-1.52

Batch lookup, inhibition per entry.
1. COc1cc2c(cc1Nc1nc(N3CCc4ccccc43)c3cc[nH]c3n1)N(C(=O)CN(C)C)CC2
2. N#Cc1c(NC(=O)c2cccc3ccccc23)sc2c1CCCC2
3. CN1CCC(C(=O)Nc2n[nH]c3nnc(-c4ccccc4)cc23)CC1
4. Cc1ccc(C(=O)NC2CCCCC2)cc1-c1ccc(C(=O)NCC2CC2)cc1

2.22
-4.77
1.84
2.02

Batch lookup, inhibition per entry.
1. COc1ccc(-c2coc3ncnc(N)c23)cc1
2. COC(=O)Nc1nc2cc(Oc3cccc(NC(=O)Nc4cc(C(F)(F)F)ccc4F)c3)ccc2[nH]1
3. CS(=O)(=O)CCNCc1ccc(-c2ccc3ncnc(Nc4ccc(OCc5ccccc5)c(Cl)c4)c3c2)o1

1. 1.21
2. -2.35
3. -2.92

Batch lookup, inhibition per entry.
1. CC1=C(C(=O)Nc2ccc3[nH]ncc3c2)C(c2ccc(Cl)c(Cl)c2)CC(=O)N1 (stereo unspecified)
2. O=C1NC(=O)C(c2ccccc2Cl)=C1Nc1cccc(O)c1
3. CN(C)c1cc2c(Nc3ccc4nc(Cc5ccccc5)[nH]c4c3)ncnc2cn1
4. CS(=O)(=O)Nc1ccc(N/C=C2\C(=O)Nc3ccccc32)cc1
5. CCn1c(-c2nonc2N)nc2c(N3CCCC3)nccc21

[-0.63, 2.61, 2.13, -2.34, -5.01]

Batch lookup, inhibition per entry.
1. O=C1NC(=O)C(N2CCc3ccccc32)=C1c1ccc(Cl)cc1
2. NS(=O)(=O)c1cccc(-c2ccc3c(NC(=O)C4CC4)n[nH]c3c2)c1

1. 1.33
2. -4.33
